Target: T1, recombinant human HER2 extracellular domain protein (human, UniProt P04626 23-652)
T1 construct: range 23-652; Range is printed for the immunogen/panning protein; also called ErbB2; recombinant HER2 protein
Assay: BLI, Protein A capture
measure-name: kon (M⁻¹ s⁻¹)
Entry rule: numbers only, all in M⁻¹ s⁻¹.

Example results:
>>> observed("Hu2117HK-Mu02 (Fc fusion, scFv-hIgG1 Fc; not shown: human IgG1 Fc) scFv: EVQLVESGGGLVQPGGSLRLSCAASGFTYSSYGMSWVRQAPGKGLEWVASISGGGSYTKYPDSVKGRFTISRDNSKNTLYLQMNSLRAEDTAVYYCARDYAGFFDVWGQGTLVTVSSGGGGSGGGGSGGGGSDIQMTQSPSSLSASVGDRVTITCRSSQSLVHSNGNTYLHWYQQKPGKAPKLLIYKVSNRFSGVPSRFSGSGSGTDFTLTISSLQPEDFAVYFCSQSTHVPYTFGQGTKVEIK")
88600
>>> observed("Hu2117HK-Mu40 (Fc fusion, scFv-hIgG1 Fc; not shown: human IgG1 Fc) scFv: EVQLVESGGGLVQPGGSLRLSCAASGFTYSDYGMSWVRQAPGKGLEWVASISGGGSYTKYPDSVKGRFTISRDNSKNTLYLQMNSLRAEDTAVYYCARDYAGFFDVWGQGTLVTVSSGGGGSGGGGSGGGGSDIQMTQSPSSLSASVGDRVTITCRSSQSLVHSNGNTYLHWYQQKPGKAPKLLIYKVSNRFSGVPSRFSGSGSGTDFTLTISSLQPEDFATYFCSQSTHVPYTFGQGTKVEIK")
72700

Now look at this one.
# get_value(readout='kon', item= Hu2117HK-Mu30 (Fc fusion, not shown: a dimerising Fc or GST; small tags and cut ends, scFv-hIgG1 Fc) scFv: EVQLVESGGGLVQPGGSLRLSCAASGFTYSSYGMSWVRQAPGKGLEWVASISGGGSYTKYPDSVKGRFTISRDNSKNTLYLQMNSLRAEDTAVYYCARDYAGFFDVWGQGTLVTVSSGGGGSGGGGSGGGGSDIQMTQSPSSLSASVGDRVTITCRSSQSLVDSNGNTYLHWYQQKPGKAPKLLIYKVSNRFSGVPSRFSGSGSGTDFTLTISSLQPEDFATYFCSQSTHVPYTFGQGTKVEIK )
36400
